- TEST NAME: yeast growth modulation, basal conditions, primary screen, YJM789 clinical isolate, OD600, 24 h (AID 1089);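 also: growth of clinical yeast isolate S. cerevisiae YJM 789 seeded 1000 cells per well; test concentration not given here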
- RECORDED CONDITIONS: S. cerevisiae YJM789 growth, higher = more signal, called active from +8 up or from −8 down
The compounds listed here are annotated with their z-score.
The answer should be a number; do not append a unit.

Study these solved cases before continuing.
COMPOUND: NCCCCCNC(=O)[C@@H]1C[C@@H]2C(=O)NCC(=O)N2[C@@H]1c1cccc(OCCO)c1
z-score: -0.0012

COMPOUND: COC(=O)C(CC#Cc1ccc2c(c1)[C@]1(C(=O)N2)[C@H](C(=O)N2CCN(c3ncccn3)CC2)[C@H]2C(=O)O[C@H](c3ccccc3)[C@H](c3ccccc3)N2[C@@H]1c1ccc(OCCO)cc1)C(=O)OC
z-score: 3.19

COMPOUND: O=C1C[C@@](C(=O)NCCN2CCOCC2)(c2ccc([N+](=O)[O-])cc2)[C@@H](c2ccc(CO)cc2I)N1C1CCCCC1
z-score: -1.9

COMPOUND: CN(C)CCCNC(=O)[C@@]1(C)c2ccccc2C(=O)N(Cc2ccccc2)[C@H]1c1ccc(CO)cc1
z-score: -0.466

COMPOUND: CCOC(=O)C[C@H]1[C@H](OC(=O)c2ccc(C(=O)c3ccccc3)cc2)[C@@H](NC(=O)Cc2ccc(OC)cc2)c2cc(OCCCO)ccc2N1C(=O)c1ccccc1
z-score: -0.12

Task: Which z-score is reported for this compound? CCOC(=O)c1ccc(NC(=O)O[C@H]2[C@H](OC(=O)Nc3ccc4c(c3)OCO4)[C@@H](OC(=O)Nc3ccc4c(c3)OCO4)[C@@H](OC)O[C@@H]2CO)cc1
Output: 1.38

Task: Which z-score is reported for this compound? CC1CC/C=C\[C@H]2OC34C=CCN(c5ccc(Cl)cc5)C(=O)[C@H]3N(CCCCCO)C(=O)[C@]4(C)C2C(=O)O1 (stereo partly drawn)
Output: 0.184

Task: Which z-score is reported for this compound? COc1ccc([Si](C)(C)[C@@H]2[C@@H](CC(=O)N(CCO)Cc3ccccc3)O[C@]3(C(=O)N(Cc4cccc(N5C(=O)c6cccc7cccc5c67)c4)c4ccccc43)[C@H]2C)cc1
Output: 0.121

###

- MEASURED ON: Concanavalin-A (Canavalia ensiformis)
- TEST NAME: ConA small-molecule binders, primary screen, artefact control for SMM control protein annotation, biochemical, small-molecule microarray, Alexa647 label, 635 nm (AID 1127);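 also: z combines 667 nm emission intensity with signal-to-noise across three replicate slides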
- RECORDED CONDITIONS: ConA-A647 binding fluorescence, higher = more signal
Consider the following partition of reported composite z-score into named classes: bin 1 (below 0.3), bin 2 (0.3 to below 0.9), bin 3 (0.9 or more)

COMPOUND: [N-]=[N+]=Nc1ccccc1C[C@]1(C(N)=O)N=C(c2ccc(OCCCO)cc2)O[C@H]1c1ccccc1N=[N+]=[N-]
CATEGORY: bin 3
--
COMPOUND: CC(CO)N1C(=O)[C@@H]2[C@H]3C(=O)OCC=C[C@H]3OC23C=CCN(CCN2CCOCC2)C(=O)[C@@H]13 (some centres undefined)
CATEGORY: bin 1
--
COMPOUND: CN1C(=O)C2C=CC(C(O)c3cccc(O)c3)N(Nc3ccccc3)C2C1=O (centres undefined)
CATEGORY: bin 2

Task: GET /class?item= [N-]=[N+]=Nc1ccccc1C[C@]1(C(=O)N2CCOCC2)N=C(c2ccc(OCCCO)cc2)O[C@H]1c1ccccc1
Output: bin 3

Task: GET /class?item= C=CCNC(=O)[C@@H]1[C@H]2C(=O)O[C@H](c3ccccc3)[C@H](c3ccccc3)N2[C@H](c2ccc(O)cc2)[C@@]12C(=O)N(C(=O)OCCOC)c1ccc(C#CC3(O)CCCCCC3)cc12
Output: bin 1

Task: GET /class?item= O=C1C2C=CC(C(O)c3ccc(F)cc3)N(n3cnnc3)C2C(=O)N1Cc1ccccc1 (centres undefined)
Output: bin 1

Task: GET /class?item= CCCC[C@@H]1C[C@H]1[C@@H](NC(=O)c1cccs1)c1ccc(C(F)(F)F)cc1
Output: bin 1

Task: GET /class?item= COC(=O)[C@@]1(Cc2ccc(OC)cc2)[C@H]2c3cc(C(=O)N(C)C)n(C[C@H](O)CO)c3C[C@H]2CN1C(=O)c1ccccc1
Output: bin 2

Task: GET /class?item= NC(=O)NCC#Cc1ccc2c(c1)[C@]1(C(=O)N2)[C@H](C(=O)O)[C@H]2C(=O)O[C@H](c3ccccc3)[C@H](c3ccccc3)N2[C@@H]1c1ccc(OCCO)cc1
Output: bin 3

Task: GET /class?item= COC(=O)c1ccc([C@H](NC(=O)c2ccco2)[C@]2(C)C[C@H]2C2CCCCC2)cc1
Output: bin 1

Task: GET /class?item= COC(=O)[C@@]1(Cc2ccc(OC)cc2)[C@H]2c3cc(C(=O)N4CCCC4)n(Cc4cccc5ccccc45)c3C[C@H]2CN1C(=O)c1ccccc1
Output: bin 2

Task: GET /class?item= CCOC(=O)C1=CC[C@@H](c2ccccc2C(F)(F)F)N(S(=O)(=O)c2ccc(C)cc2)[C@H]1c1ccc(C#N)cc1
Output: bin 3

Task: GET /class?item= CCOC(=O)C[C@H]1[C@H](OC(=O)c2cc3ccccc3oc2=O)[C@@H](NC(=O)c2ccc(-c3ccccc3)cc2)c2cc(OCCCO)ccc2N1C(=O)c1ccc2ccccc2n1
Output: bin 2

Task: GET /class?item= [N-]=[N+]=Nc1ccccc1[C@H]1OC(c2ccc(OCCCO)cc2)=N[C@@]1(Cc1ccccc1)C(=O)N1CCCCC1
Output: bin 3

Task: GET /class?item= NCCCCCCNC(=O)[C@@H]1C[C@@H]2C(=O)N[C@@H](CCCCN)C(=O)N2[C@@H]1c1cccc(OCCO)c1
Output: bin 2

Task: GET /class?item= CN(C)CCCNC(=O)[C@@]1(C)c2ccccc2C(=O)N(Cc2ccccc2)[C@H]1c1ccc(CO)cc1
Output: bin 1

Task: GET /class?item= CCCNC(=O)[C@@]1(c2ccc([N+](=O)[O-])cc2)CC(=O)N(C2CCCCC2)[C@@H]1c1ccc(CO)cc1
Output: bin 3

Task: GET /class?item= CN1C(=O)C2C=CC(C(O)COCc3ccccc3)N(N(c3ccccc3)c3ccccc3)C2C1=O (centres undefined)
Output: bin 2

Task: GET /class?item= O=C1O[C@@H](c2ccccc2)[C@@H](c2ccccc2)N2[C@@H](c3ccccc3OCCO)[C@]3(C(=O)Nc4ccc(C#CCCO)cc43)[C@@H](C(=O)N3CCCCCCC3)[C@H]12
Output: bin 3

Reference for the values: PubChem BioAssay
